molecular target: SHP2-C SH2; assay: SH2 binding enrichment of the phosphorylated peptide, bacterial display (enrichment ratio); higher = better substrate or ligand; peptides without Tyr show the background;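 further: peptide library displayed on the E. coli surface as eCPX fusions, selected cells deep-sequenced, score is each peptide's frequency after selection divided by its frequency in the input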
RECORDED METRIC: SH2 binding enrichment

Recorded results for 3 sequences are shown here.
NNKKDYYDMYE [SLC26A3_Y526_K521N]    0.54
YTFNSYYMHWV [IGHV1-46_Y51_T49N]    0.951
NYADPYRQLPY [CTNND2_Y503_Q507P]    0.749

A: SELVCYDARVH [MET_Y971_R970C]
B: LNAGAYSKVVQ [PPT1_Y172]
Higher SH2 binding enrichment: A or B ? Give the label of your selection.
B
(B: 5.07, A: 0.739)

I: TEDELYQLFLQ [RASGRP2_Y378_S381F]
II: AHAGEYGAVAL [HBA1_Y25_E28V]
Looking at recorded values for SH2 binding enrichment, does I or II come in lower? Record your answer as the label of the chosen record.
II

###

target: Jak2 (UniProt O60674); assay: phosphorylation enrichment, bacterial display (enrichment ratio); higher = better substrate or ligand; peptides without Tyr show the background
Sequence (O60674 whole entry, looked up): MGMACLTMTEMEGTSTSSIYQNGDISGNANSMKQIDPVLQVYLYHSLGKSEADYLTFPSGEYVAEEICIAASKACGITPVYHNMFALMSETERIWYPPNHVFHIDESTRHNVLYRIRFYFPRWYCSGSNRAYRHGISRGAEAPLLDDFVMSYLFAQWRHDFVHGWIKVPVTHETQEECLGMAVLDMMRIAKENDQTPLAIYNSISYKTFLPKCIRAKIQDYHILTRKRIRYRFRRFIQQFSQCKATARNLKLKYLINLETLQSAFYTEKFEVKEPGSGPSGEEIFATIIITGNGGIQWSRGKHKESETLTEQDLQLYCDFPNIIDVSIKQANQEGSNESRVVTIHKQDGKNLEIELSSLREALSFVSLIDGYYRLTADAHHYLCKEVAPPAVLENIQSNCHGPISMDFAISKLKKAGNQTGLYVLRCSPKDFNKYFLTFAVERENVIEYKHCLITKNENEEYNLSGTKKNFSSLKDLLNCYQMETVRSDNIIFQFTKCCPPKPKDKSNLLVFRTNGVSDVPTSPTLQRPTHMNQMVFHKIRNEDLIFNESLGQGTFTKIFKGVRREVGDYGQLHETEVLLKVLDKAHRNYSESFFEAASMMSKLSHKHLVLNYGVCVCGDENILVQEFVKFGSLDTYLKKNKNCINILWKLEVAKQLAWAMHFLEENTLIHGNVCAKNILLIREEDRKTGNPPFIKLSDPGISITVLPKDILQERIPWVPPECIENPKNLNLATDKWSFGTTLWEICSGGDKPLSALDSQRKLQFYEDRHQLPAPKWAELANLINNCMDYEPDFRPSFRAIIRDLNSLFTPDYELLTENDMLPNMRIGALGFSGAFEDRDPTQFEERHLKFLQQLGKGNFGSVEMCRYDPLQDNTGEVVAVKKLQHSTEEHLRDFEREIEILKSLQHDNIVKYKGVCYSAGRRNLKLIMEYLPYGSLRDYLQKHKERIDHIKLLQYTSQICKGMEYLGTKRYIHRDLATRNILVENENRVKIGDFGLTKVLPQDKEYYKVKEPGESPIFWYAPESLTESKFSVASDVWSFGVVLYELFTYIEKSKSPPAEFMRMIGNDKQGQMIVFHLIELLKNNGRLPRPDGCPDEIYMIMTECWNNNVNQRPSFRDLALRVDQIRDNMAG
RECORDED METRIC: phosphorylation enrichment
# print the numeric value only

Recall and state the measured phosphorylation enrichment for FMFKVYSDPQP [FGFR1_Y280_C277Y_YF] .
1.49

Tell us which phosphorylation enrichment value is on record for VIIVLYFSLWK [SLC6A2_Y249_V245I]
0.702

###

molecular target: EPHB1 (UniProt P54762); assay: phosphorylation enrichment, bacterial display (enrichment ratio); higher = better substrate or ligand; peptides without Tyr show the background
Sequence (P54762 whole entry, looked up): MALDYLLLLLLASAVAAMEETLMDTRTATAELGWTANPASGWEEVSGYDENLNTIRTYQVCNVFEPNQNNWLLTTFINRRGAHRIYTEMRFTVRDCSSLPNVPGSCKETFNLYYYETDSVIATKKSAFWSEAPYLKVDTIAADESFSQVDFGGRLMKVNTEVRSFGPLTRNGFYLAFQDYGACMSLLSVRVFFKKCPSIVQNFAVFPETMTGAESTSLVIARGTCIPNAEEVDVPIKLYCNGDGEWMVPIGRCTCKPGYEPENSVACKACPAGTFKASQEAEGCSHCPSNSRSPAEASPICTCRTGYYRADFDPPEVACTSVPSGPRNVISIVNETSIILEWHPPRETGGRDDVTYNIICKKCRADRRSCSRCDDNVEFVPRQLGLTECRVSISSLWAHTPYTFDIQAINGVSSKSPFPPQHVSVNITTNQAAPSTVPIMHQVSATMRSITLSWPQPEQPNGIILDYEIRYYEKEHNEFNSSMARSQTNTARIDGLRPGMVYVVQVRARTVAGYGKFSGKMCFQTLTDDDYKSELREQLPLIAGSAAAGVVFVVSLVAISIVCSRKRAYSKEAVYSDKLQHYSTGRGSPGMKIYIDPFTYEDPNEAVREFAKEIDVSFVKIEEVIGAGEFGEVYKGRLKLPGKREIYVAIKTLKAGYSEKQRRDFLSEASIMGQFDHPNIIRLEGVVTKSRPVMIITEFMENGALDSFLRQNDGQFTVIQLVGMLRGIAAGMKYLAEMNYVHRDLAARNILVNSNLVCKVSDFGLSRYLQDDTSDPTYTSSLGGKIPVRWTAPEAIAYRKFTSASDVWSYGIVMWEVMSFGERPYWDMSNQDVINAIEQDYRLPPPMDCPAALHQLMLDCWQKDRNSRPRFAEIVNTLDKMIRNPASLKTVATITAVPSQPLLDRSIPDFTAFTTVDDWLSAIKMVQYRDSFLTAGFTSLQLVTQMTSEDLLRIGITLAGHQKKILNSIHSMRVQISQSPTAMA
RECORDED METRIC: phosphorylation enrichment
No unit in the answer, please; the number alone is enough.

AGTILYHAHLD [ASS1_Y291]    0.526
IGLHAYGDQYR [IDH1_Y135_R132L]    0.469

Output measured phosphorylation enrichment for this item: CTLLPYFSARV [DGKE_Y269_YF]
0.613

Please look at this sequence and report its phosphorylation enrichment: VVAHHYSFAPD [TNS3_Y601_Q600H]
0.426

Retrieve phosphorylation enrichment measured for LFSGDYFRIQG [DDR2_Y740_YF] and print it.
6.99

State, in one line, measured phosphorylation enrichment of QNTGGYYDLYG [PTPN11_Y62_D61G]
1.85

Supply reported phosphorylation enrichment belonging to this sequence: ASMAKYYASEI [ACADSB_Y372]
0.404

###

biological target: Hck (UniProt P08631); experiment: phosphorylation enrichment, bacterial display (enrichment ratio); higher = better substrate or ligand; peptides without Tyr show the background
Sequence (P08631 whole entry, looked up): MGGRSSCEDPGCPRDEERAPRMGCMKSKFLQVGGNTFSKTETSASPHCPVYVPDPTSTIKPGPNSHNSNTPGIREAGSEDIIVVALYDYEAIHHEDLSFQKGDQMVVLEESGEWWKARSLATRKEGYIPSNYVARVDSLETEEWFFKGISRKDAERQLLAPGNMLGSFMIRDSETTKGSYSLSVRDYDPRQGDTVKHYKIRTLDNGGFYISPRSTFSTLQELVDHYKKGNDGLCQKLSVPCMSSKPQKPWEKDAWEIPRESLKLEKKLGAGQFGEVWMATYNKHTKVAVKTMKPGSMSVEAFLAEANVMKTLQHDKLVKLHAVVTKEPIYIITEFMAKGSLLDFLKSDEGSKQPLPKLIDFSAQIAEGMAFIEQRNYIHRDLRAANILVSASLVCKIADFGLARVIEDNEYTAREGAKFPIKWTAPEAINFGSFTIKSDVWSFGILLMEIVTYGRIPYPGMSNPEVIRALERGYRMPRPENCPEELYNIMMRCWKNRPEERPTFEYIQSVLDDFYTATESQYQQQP
Quick list: phosphorylation enrichment per entry.
Please reply with the value in numeric form only.

VDTPMYATMQR [TPO_Y55_A53P]    5.46
DGMADYSDPSF [CDC5L_Y459_YF]    0.63
RLLRGYDQFAY [HLA-C_Y137_S140F]    0.49

Identify measured phosphorylation enrichment corresponding to QKLPLYILENN [VPS13B_Y2774_S2773L]
0.709

Read the entry NVTGHYISPFH [PPA2_Y59] and write its reported phosphorylation enrichment.
0.486

Answer with the recorded phosphorylation enrichment of LIHLHYIRRDF [BBS4_Y43_K46R_YF] only.
0.581

Specify phosphorylation enrichment for LTNDRYLATLT [IL6ST_Y396] and stop.
0.463

// Input: PEADKYRLPFA [FGG_Y300_T303P_YF] . Output its phosphorylation enrichment only.
0.648

Using the record for GRFCGYKSKHG [EPHA3_Y570] , state its measured phosphorylation enrichment.
0.377

Please report phosphorylation enrichment for the following sequence: DEEPPHRGPFC [SASH1_Y551_Y551H]
0.542

In one line, give reported phosphorylation enrichment of the entry HIPFRYPKEFQ [IDS_Y234] .
0.564

Given the sequence VTGWGYRKLRD [F11_Y521] , write its reported phosphorylation enrichment.
0.42
